# key: entry, value: EC50
molecular target: PPARδ (Homo sapiens, UniProt Q03181); construct: fused to amino acids 147-441 of PPARδ downstream of CMV promoter; expressed in transfected cells; host or cells: HEK293 cells, transiently transfected with pFACMV-PPARδ using Fugene; test: Transactivation assay (PPARδ GAL4 assay) in transiently transfected HEK293 cells; format: cell-based; details: luciferase reporter, Table 1
Sequence (Q03181 147-441): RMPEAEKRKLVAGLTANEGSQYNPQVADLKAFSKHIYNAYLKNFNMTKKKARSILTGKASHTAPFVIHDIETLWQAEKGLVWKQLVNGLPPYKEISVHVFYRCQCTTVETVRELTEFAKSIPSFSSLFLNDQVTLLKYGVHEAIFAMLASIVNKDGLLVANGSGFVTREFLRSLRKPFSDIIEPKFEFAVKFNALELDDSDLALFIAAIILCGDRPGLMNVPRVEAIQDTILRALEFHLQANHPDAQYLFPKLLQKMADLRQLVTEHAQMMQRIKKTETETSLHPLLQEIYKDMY
Where a name gives a salt, the structure may show the parent alone.

Study these solved cases before continuing.
1. CCc1cc(C(=O)c2ccccc2)c(NC(=O)CSC(C)(C)C(=O)O)s1 [Example 15] : 1000 to 30000 nM
2. CCc1cc(C(=O)c2ccc(OC(F)(F)F)cc2)c(NC(=O)c2ccc(OCC(=O)O)cc2)s1 [Example 99] : < 100 nM
3. CCc1cc(C(=O)c2ccc(OC(F)(F)F)cc2)c(NC(=O)CN[C@H](C(=O)O)C(C)C)s1 [Example 79] : < 100 nM

*Q* What measured EC50 goes with CCc1cc(C(=O)c2ccc(OC(F)(F)F)cc2)c(NC(=O)CNC2(C(=O)O)CC2)s1 [Example 82] ?
*A* 1000 to 30000 nM

*Q* What would you report for CCc1cc(C(=O)c2ccc(OC(F)(F)F)cc2)c(NC(=O)c2cccc(SCC(=O)O)c2)s1 [Example 98] ?
*A* 100 to 1000 nM

*Q* What would you report for CCc1cc(C(=O)c2ccc(OC(F)(F)F)cc2)c(NC(=O)CN[C@@H](C(=O)O)C(C)C)s1 (single isomer, unassigned) [Example 75] ?
*A* < 100 nM

*Q* What would you report for CCc1cc(C(=O)c2ccc(C)cc2)c(NC(=O)CSCC(=O)O)s1 [Example 8] ?
*A* 100 to 1000 nM

*Q* What would you report for CCc1cc(C(=O)c2ccc(OC(F)(F)F)cc2)c(NC(=O)CSCC(=O)O)s1 [Example 1] ?
*A* < 100 nM

*Q* What would you report for CCc1cc(C(=O)c2ccc(F)c(Cl)c2)c(NC(=O)CSCC(=O)O)s1 [Example 31] ?
*A* 100 to 1000 nM

*Q* What would you report for CCc1cc(C(=O)c2ccc(OC(F)(F)F)cc2)c(NC(=O)c2ccc(OC(C)(C)C(=O)O)cc2)s1 [Example 102] ?
*A* 100 to 1000 nM

*Q* What would you report for CCc1cc(C(=O)c2ccc(OC)cc2)c(NC(=O)CNCC(=O)O)s1 [Example 74, hydrochloride] ?
*A* 1000 to 30000 nM

*Q* What would you report for CCc1cc(C(=O)c2ccc(Cl)cc2)c(NC(=O)c2ccc(OCC(=O)O)cc2)s1 [Example 97] ?
*A* 100 to 1000 nM

*Q* What would you report for CCc1cc(C(=O)c2ccc(OC)cc2)c(NC(=O)CC2(CC(=O)O)CCCC2)s1 [Example 6] ?
*A* 1000 to 30000 nM

*Q* What would you report for CCc1cc(C(=O)c2ccc(F)c(Cl)c2)c(NC(=O)CC(C)(C)CC(=O)O)s1 [Example 32] ?
*A* 1000 to 30000 nM

*Q* What would you report for CCc1cc(C(=O)c2ccc(F)cc2)c(NC(=O)CSC(C)(C)C(=O)O)s1 [Example 19] ?
*A* 100 to 1000 nM

*Q* What would you report for CCc1cc(C(=O)c2ccc(OC(F)(F)F)cc2)c(NC(=O)CSc2ccc(OC(C)(C)C(=O)O)cc2)s1 [Example 95] ?
*A* 100 to 1000 nM
